All figures here come from patent US12077503B2.

This section presents compounds with their documented Plant response rating, Barnyardgrass values.
Tested on: barnyardgrass (Echinochloa crus-galli)
Assay Summary: Test A postemergence
Type: in vivo
Measurement Setup: 500 g ai/ha, postemergence; 0 to 100 scale, 0 no effect, 100 complete control
Readout Kind: Plant response rating, Barnyardgrass

CCc1ccc(C2CNC(=O)C2C(=O)Nc2cccc(F)c2F)cc1 (stereo not drawn) [Compound 467]
90
CN1CC(c2ccc(C(F)(F)F)c(F)c2)C(C(=O)Nc2cccc(F)c2F)C1=O (stereo not drawn) [Compound 396]
90
O=C1NCC(c2ccc(Br)cc2)C1C(=O)Nc1ccccc1F (stereo not drawn) [Compound 448]
90

###

Tested on: ryegrass, Italian (Italian ryegrass, Lolium multiflorum)
Assay Summary: Test A postemergence
Type: in vivo
Measurement Setup: Lolium multiflorum, post-emergence, 240 h, 125 g ai/ha, postemergence; visual injury after approximately 10 d; 0 to 100 scale (0 no effect, 100 complete control); read-out: Plant response rating, Ryegrass, Italian
Readout Kind: pest or weed control at 125 g/ha (%)

CN1C[C@H](c2ccc(C(F)(F)F)cc2)[C@@H](C(=O)Nc2ccccc2C2CC2)C1=O
0
CCc1ccc([C@H]2CNC(=S)[C@@H]2C(=O)Nc2ccccc2SC)cc1
0
CN1C[C@H](c2cc(F)cc(F)c2)[C@@H](C(=O)Nc2ccc(F)cc2C(F)(F)F)C1=O
0
C/C=C/C1CNC(=O)C1C(=O)Nc1ccccc1F (stereo not shown)
0
O=C1NC[C@H](c2ccc(C(F)(F)F)cc2)[C@H]1C(=O)Nc1ccccc1C1CC1
0
CCc1cc(CC)cc([C@H]2CN(C)C(=O)[C@@H]2C(=O)Nc2ccccc2C(F)(F)F)c1
50
CC(F)(F)c1cccc([C@H]2CNC(=O)[C@@H]2C(=O)Nc2ccc(F)cc2F)c1
20

###

Test system: pigweed (Amaranthus retroflexus)
Assay Summary: Test A postemergence
Type: in vivo
Measurement Setup: Amaranthus retroflexus, post-emergence, 240 h, 500 g ai/ha, postemergence; 0 to 100 scale, 0 is no effect, 100 is complete control; read-out: Pigweed plant response rating
This section presents compounds with their documented pest or weed control at 500 g/ha values.
Readout Kind: pest or weed control at 500 g/ha (%)

CSc1ccccc1NC(=O)[C@H]1C(=O)NC[C@@H]1c1cc(F)c(F)c(F)c1
60
CN1C[C@H](c2cc(C(F)F)cs2)[C@@H](C(=O)Nc2ccccc2F)C1=O
20
Cc1cc([C@H]2CN(C)C(=O)[C@@H]2C(=O)Nc2ccc(F)cc2F)ccc1Br
0
CN1C[C@H](c2ccc(C(F)(F)F)cc2)[C@](F)(C(=O)Nc2cccc(F)c2F)C1=O (racemic)
0
COc1ccc([C@H]2CN(C)C(=O)[C@@H]2C(=O)Nc2ccccc2SC)c(OC)c1
0
COc1cc(C(F)(F)F)ccc1[C@H]1CNC(=O)[C@@H]1C(=O)Nc1cccc(F)c1F
20
CN1C[C@H](c2cc(F)cc(F)c2)[C@@H](C(=O)Nc2cnccc2Cl)C1=O
0
CN1C[C@H](c2ccc(F)c(F)c2)[C@@H](C(=S)Nc2ccccc2F)C1=O (racemic)
0

###

Tested on: ivy-leaved morning glory (Ipomoea hederacea)
Assay Summary: Test G Post-Emergence Protocol
Assay type: in vivo
Measurement Setup: Ipomoea, post-emergence, 312 h, 250 g ai/ha, evaluated after 13 days, read-out: damage to plant, Morningglory, Ivy-leaved (100=total damage to plant; 0=no damage to plant)
This section presents molecules with their documented pest or weed control at 250 g/ha values.
Readout Kind: pest or weed control at 250 g/ha (%)

CN1C[C@H](c2ccc(C(F)(F)F)cc2)[C@@H](C(=O)Nc2cccnc2F)C1=O
60
C=Cc1ccc([C@H]2CN(C)C(=O)[C@@H]2C(=O)Nc2ccccc2F)cc1 (racemic)
20
CN1C[C@@H](c2ccc(C(F)(F)F)cc2)[C@H](C(=O)Nc2c[nH]nc2C(F)(F)F)C1=O (racemic)
0
Cc1nccc(NC(=O)[C@@H]2C(=O)N(C)C[C@H]2c2ccc(C(F)(F)F)cc2)n1 (racemic)
0
CN1C[C@@H](c2ccc(C(F)(F)F)cc2)[C@H](C(=O)Nc2cccc(F)c2)C1=O (racemic)
60
